The origin of these recorded values is patent US20180044434A1.

Below, each of the binders is paired with its reported O.D. 490/630 at 0.015625 µg/mL value.
# system_under_test: T1, full-length recombinant human PAD4 (human, UniProt Q9UM07 1-663)
# T1 construct: Full-length recombinant; also called peptidylarginine deiminase 4
# assay_info: ELISA, immobilized human PAD4
property_name: O.D. 490/630 at 0.015625 µg/mL

binder	property_name	readout_number
humanized anti-PAD4 antibody derived from G8, VH H4.15 / VL L4.17 (antibody, human IgG1, kappa, V domains shown, IgG1 kappa; also called G8 H4.15/L4.17) VH: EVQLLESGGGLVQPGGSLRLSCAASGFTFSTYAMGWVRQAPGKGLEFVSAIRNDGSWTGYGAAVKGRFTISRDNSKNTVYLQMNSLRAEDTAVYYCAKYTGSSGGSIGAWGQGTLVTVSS VL: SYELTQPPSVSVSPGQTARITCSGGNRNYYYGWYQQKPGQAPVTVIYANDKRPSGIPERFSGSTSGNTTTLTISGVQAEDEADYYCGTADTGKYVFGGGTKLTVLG	O.D. 490/630 at 0.015625 µg/mL	1.66
humanized anti-PAD4 antibody derived from H7, VH H4.15 / VL L4.17 (antibody, IgG1, V domains shown, IgG1 kappa; also called H7 H4.15/L4.17) VH: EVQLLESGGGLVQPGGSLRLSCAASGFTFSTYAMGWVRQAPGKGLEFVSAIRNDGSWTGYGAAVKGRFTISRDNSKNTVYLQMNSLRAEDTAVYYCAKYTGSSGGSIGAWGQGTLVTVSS VL: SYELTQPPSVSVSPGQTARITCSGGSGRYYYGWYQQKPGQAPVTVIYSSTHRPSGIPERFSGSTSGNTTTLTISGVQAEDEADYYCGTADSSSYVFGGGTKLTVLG	O.D. 490/630 at 0.015625 µg/mL	1.63
humanized anti-PAD4 antibody derived from H7, VH H4.32 / VL L4.00 (antibody, IgG1, V domains shown, IgG1 kappa; also called H7 H4.32/L4.00) VH: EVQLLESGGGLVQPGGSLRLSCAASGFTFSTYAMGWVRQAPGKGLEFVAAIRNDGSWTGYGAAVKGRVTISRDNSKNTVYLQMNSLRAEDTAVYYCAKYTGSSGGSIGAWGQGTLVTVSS VL: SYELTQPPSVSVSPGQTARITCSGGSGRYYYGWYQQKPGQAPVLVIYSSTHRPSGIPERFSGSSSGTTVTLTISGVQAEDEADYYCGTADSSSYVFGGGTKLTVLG	O.D. 490/630 at 0.015625 µg/mL	0.713
humanized anti-PAD4 antibody derived from G8, VH H4.32 / VL L4.06 (antibody, IgG1, V domains shown, IgG1 kappa; also called G8 H4.32/L4.06) VH: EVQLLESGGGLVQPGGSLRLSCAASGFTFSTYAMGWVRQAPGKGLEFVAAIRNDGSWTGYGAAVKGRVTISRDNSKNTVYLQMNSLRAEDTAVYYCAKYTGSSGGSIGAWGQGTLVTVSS VL: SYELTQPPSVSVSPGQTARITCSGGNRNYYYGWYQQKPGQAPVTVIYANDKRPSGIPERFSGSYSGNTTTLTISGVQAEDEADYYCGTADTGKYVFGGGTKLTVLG	O.D. 490/630 at 0.015625 µg/mL	1.6
humanized anti-PAD4 antibody derived from G8, VH H4.15 / VL L4.29 (antibody, human IgG1, kappa, V domains shown, IgG1 kappa; also called G8 H4.15/L4.29) VH: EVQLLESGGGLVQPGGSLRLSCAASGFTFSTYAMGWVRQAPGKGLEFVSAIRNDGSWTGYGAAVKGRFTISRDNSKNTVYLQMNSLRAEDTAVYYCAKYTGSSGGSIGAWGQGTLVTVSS VL: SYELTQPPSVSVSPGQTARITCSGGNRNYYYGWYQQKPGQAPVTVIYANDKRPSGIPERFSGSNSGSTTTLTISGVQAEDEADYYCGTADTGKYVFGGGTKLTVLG	O.D. 490/630 at 0.015625 µg/mL	1.56
